# targetSystem: CDK2/Cyclin A2 (Homo sapiens, UniProt P24941)
# protocolSummary: Inhibition of human CDK2/cyclin A using Biotin-C6-PKTPKKAKKL substrate
measurementKind: IC50 (nM)
Give bare numbers, in nM.

Hi team, please reply with IC50 for each item in this list.
1. CO[C@H]1CC[C@H](NC(=O)c2n[nH]cc2NC(=O)c2ccccc2C(F)(F)F)CC1
2. COc1cccc(OC)c1C(=O)Nc1c[nH]nc1C(=O)NC1CCCCC1
3. CCc1ccccc1C(=O)Nc1c[nH]nc1C(=O)N[C@H]1CC[C@H](OC)CC1
4. CO[C@H]1CC[C@H](NC(=O)c2n[nH]cc2NC(=O)c2cc3ccccn3n2)CC1
5. CO[C@H]1CC[C@H](NC(=O)c2n[nH]cc2NC(=O)c2ccc(OC(F)F)cc2)CC1

[100, 1200, 70, 42, 270]

Hi team, please reply with IC50 for each item in this list.
1. CO[C@H]1CC[C@H](NC(=O)c2n[nH]cc2NC(=O)c2ncoc2-c2ccccc2)CC1
2. CO[C@H]1CC[C@H](NC(=O)c2n[nH]cc2NC(=O)c2ccc(F)cc2F)CC1

[22000, 220]

----------
Provide the recorded log10(EC50) for the entries that follow.
# Test system: Trypanosoma brucei brucei
# protocolSummary: Trypanocidal activity against bloodstream stage of Trypanosoma brucei brucei assessed as inhibition of proliferation after 72 hrs
# Assay type: functional, organism-based
Kindly note that the scale is log10 and the underlying EC50 is in µM.

A selection of reference data follows.
CO[C@H]1CC[C@H](NC(=O)c2n[nH]cc2NC(=O)c2ccccc2F)CC1 :: -0.40
COc1cccc(OC)c1C(=O)Nc1c[nH]nc1C(=O)NCc1ccccc1 :: 0.77
COc1cccc(OC)c1C(=O)Nc1c[nH]nc1C(=O)NC1CCN(C(=O)OC(C)(C)C)CC1 :: 1.08
CO[C@H]1CC[C@H](NC(=O)c2n[nH]cc2NC(=O)Cc2ccccc2F)CC1 :: 1.36
CO[C@H]1CC[C@H](NC(=O)c2n[nH]cc2NC(=O)c2ccc(OC(F)F)cc2)CC1 :: 0.04
COc1cccc(OC)c1C(=O)Nc1c[nH]nc1C(=O)NC1CCCCCC1 :: 0.65
COc1cccc(OC)c1C(=O)Nc1c[nH]nc1C(=O)NC1CC2CCC1C2 (stereo not given) :: 1.20

Attention now shifts to the item below.
# log10(EC50) of "COc1cccc(OC)c1C(=O)Nc1c[nH]nc1C(=O)Nc1ccccc1" = 1.06

----------
# protocolSummary: Inhibition of Trypanosoma brucei GSK3 using biotinylated GSP2 substrate by flashplate assay
measurementKind: pIC50
Numbers only, as −log10 of the molar value.

A selection of reference data follows.
COc1cccc(OC)c1C(=O)Nc1c[nH]nc1C(=O)NCCCOC(C)C :: 9.00
CO[C@H]1CC[C@H](NC(=O)c2n[nH]cc2NC(=O)C2CCC(F)(F)CC2)CC1 :: 6.30
CO[C@H]1CC[C@H](NC(=O)c2n[nH]cc2NC(=O)c2ccc(-c3ccccc3)o2)CC1 :: 8.15

Hi team, please reply with pIC50 for each item in this list.
1. CO[C@H]1CC[C@H](NC(=O)c2n[nH]cc2NC(=O)c2ccc(F)cc2F)CC1
2. COc1cccc(OC)c1C(=O)Nc1c[nH]nc1C(=O)NC1CCN(C(=O)OC(C)(C)C)CC1
3. COc1cccc(OC)c1C(=O)Nc1c[nH]nc1C(=O)NCc1ccccn1
4. COCCNC(=O)c1n[nH]cc1NC(=O)c1c(OC)cccc1OC
5. CO[C@H]1CC[C@H](NC(=O)c2n[nH]cc2NC(=O)c2ccc(N3CCN(C)CC3)cc2)CC1
6. COc1ccccc1C(=O)Nc1c[nH]nc1C(=O)N[C@H]1CC[C@H](OC)CC1
7. COc1cccc(OC)c1C(=O)Nc1c[nH]nc1C(=O)Nc1ccccc1

[7.28, 8.22, 7.82, 7.47, 7.15, 8.40, 8.22]

Hi team, please reply with pIC50 for each item in this list.
1. CO[C@H]1CC[C@H](NC(=O)c2n[nH]cc2NC(=O)c2ccccc2Nc2cccc(C)c2C)CC1
2. CCc1ccccc1C(=O)Nc1c[nH]nc1C(=O)N[C@H]1CC[C@H](OC)CC1
3. CO[C@H]1CC[C@H](NC(=O)c2n[nH]cc2NC(=O)c2cc(F)cc(F)c2)CC1

1: 7.18; 2: 7.28; 3: 7.62

Hi team, please reply with pIC50 for each item in this list.
1. COc1cccc(OC)c1C(=O)Nc1c[nH]nc1C(=O)NC1CCC(C)CC1 (mixture of isomers)
2. COc1cccc(OC)c1C(=O)Nc1c[nH]nc1C(=O)NC1CCN(Cc2ccccc2)C1 (stereo not given)
3. COc1cccc(OC)c1C(=O)Nc1c[nH]nc1C(=O)NCCCN(C)C
4. CCCCCNC(=O)c1n[nH]cc1NC(=O)c1c(OC)cccc1OC

[9.00, 8.10, 6.48, 9.00]

Hi team, please reply with pIC50 for each item in this list.
1. CO[C@H]1CC[C@H](NC(=O)c2n[nH]cc2NC(=O)C2CCOCC2)CC1
2. COc1cccc(OC)c1C(=O)Nc1c[nH]nc1C(=O)NCC1CCCCC1
3. COc1cccc(OC)c1C(=O)Nc1c[nH]nc1C(=O)Nc1ccncc1

1. 6.16
2. 9.00
3. 8.40
